# target entity: endoplasmic reticulum Ca2+-ATPase (SERCA), SR vesicles from rabbit skeletal muscle (Oryctolagus cuniculus, UniProt P04191)
# Construct: sarcoplasmic reticulum (SR) vesicles prepared from rabbit skeletal muscle; from tissue; host or cells: rabbit skeletal muscle sarcoplasmic reticulum vesicles
# Sequence (P04191 1-994 isoform P04191-2): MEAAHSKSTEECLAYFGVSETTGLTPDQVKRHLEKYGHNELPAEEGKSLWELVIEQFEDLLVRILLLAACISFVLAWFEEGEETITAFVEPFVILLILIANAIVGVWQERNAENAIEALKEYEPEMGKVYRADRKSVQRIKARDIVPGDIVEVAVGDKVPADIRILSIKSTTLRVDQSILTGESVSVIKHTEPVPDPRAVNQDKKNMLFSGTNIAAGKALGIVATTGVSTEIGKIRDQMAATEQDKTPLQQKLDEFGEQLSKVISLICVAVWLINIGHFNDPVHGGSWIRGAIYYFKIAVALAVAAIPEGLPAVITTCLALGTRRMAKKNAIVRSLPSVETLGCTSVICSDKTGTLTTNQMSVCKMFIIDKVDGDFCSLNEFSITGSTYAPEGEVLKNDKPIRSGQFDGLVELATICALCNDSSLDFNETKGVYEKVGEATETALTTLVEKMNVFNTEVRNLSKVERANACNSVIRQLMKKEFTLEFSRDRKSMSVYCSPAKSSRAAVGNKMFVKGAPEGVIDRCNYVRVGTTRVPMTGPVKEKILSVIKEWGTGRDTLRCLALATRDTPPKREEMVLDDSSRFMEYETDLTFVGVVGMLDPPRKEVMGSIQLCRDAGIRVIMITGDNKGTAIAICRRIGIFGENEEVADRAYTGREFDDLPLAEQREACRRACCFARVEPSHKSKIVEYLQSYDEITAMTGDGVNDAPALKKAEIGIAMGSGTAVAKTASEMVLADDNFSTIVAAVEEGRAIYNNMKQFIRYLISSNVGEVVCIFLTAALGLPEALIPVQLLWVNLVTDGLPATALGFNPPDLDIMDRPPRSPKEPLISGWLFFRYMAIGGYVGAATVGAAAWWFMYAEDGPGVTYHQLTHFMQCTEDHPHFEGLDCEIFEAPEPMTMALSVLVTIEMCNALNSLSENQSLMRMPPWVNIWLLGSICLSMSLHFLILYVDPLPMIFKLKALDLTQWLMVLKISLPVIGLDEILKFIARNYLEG
# test method notes: SERCA inhibition: 45Ca2+ uptake to sarcoplasmic reticulum vesicles
# Type: biochemical
# reported conditions: mean (n=3) ± standard error; 5 μg/ml SR protein, free Ca2+ 100 nM, 4 min uptake; read-out: IC50 (50% inhibition of 45Ca2+ uptake to SR vesicles)
assay metric: IC50 (nM)

1. C/C=C(/C)C(=O)O[C@H]1C(C)=C2[C@H]([C@@H]1OC(=O)CCCCCCC)[C@@](C)(OC(C)=O)C[C@H](OC(=O)CCC)[C@@]1(O)[C@H]2OC(=O)[C@@]1(C)O [TG, Thapsigargin]; 5
2. CC=C(C)C(=O)OC1C(C)=C2C(C1OC(=O)CCCCCCC)C(C)(OC(C)=O)CC(OC(=O)C=Cc1ccc(N)cc1)C1(O)C2OC(=O)C1(C)O (centres unmarked) [ACT]; 18.7
3. C/C=C(/C)C(=O)O[C@H]1C(C)=C2[C@H]([C@@H]1OC(=O)CCCCCCC)[C@@](C)(OC(C)=O)C[C@H](OC(=O)CCCCCC(=O)Nc1ccc(C)c(N)c1)[C@@]1(O)[C@H]2OC(=O)[C@@]1(C)O [PDT]; 17.7
4. C/C=C(/C)C(=O)O[C@H]1C(C)=C2[C@H]([C@@H]1OC(=O)CCCCCCC)[C@@](C)(OC(C)=O)C[C@H](O)[C@@]1(O)[C@H]2OC(=O)[C@@]1(C)O [dBTG, 8-O-debutanoylthapsigargin, reference compound]; 149
5. C/C=C(/C)C(=O)O[C@H]1C(C)=C2[C@H]([C@@H]1OC(=O)CCCCCCC)[C@@](C)(OC(C)=O)C[C@H](OC(=O)/C=C/c1ccc(NC(=O)OC(C)(C)C)cc1)[C@@]1(O)[C@H]2OC(=O)[C@@]1(C)O [ACT-boc]; 20.3
6. C/C=C(/C)C(=O)O[C@H]1C(C)=C2[C@H]([C@@H]1OC(=O)CCCCCCC)[C@@](C)(OC(C)=O)C[C@H](OC(=O)CCc1ccc(N)cc1)[C@@]1(O)[C@H]2OC(=O)[C@@]1(C)O [APT]; 16.2
7. C/C=C(/C)C(=O)O[C@H]1C(C)=C2[C@H]([C@@H]1OC(=O)CCCCCCC)[C@@](C)(OC(C)=O)C[C@H](OC(=O)CCC(=O)Nc1ccc(C)c(N)c1)[C@@]1(O)[C@H]2OC(=O)[C@@]1(C)O [SDT]; 1280
8. C/C=C(/C)C(=O)O[C@H]1C(C)=C2[C@H]([C@@H]1OC(=O)CCCCCCC)[C@@](C)(OC(C)=O)C[C@H](OC(=O)c1ccc(N)cc1)[C@@]1(O)[C@H]2OC(=O)[C@@]1(C)O [ABT]; 18.4
9. C/C=C(/C)C(=O)O[C@H]1C(C)=C2[C@H]([C@@H]1OC(=O)CCCCCCC)[C@@](C)(OC(C)=O)C[C@H](OC(=O)CCCc1ccc(N)cc1)[C@@]1(O)[C@H]2OC(=O)[C@@]1(C)O [ABuT]; 18.4
10. C/C=C(/C)C(=O)O[C@H]1C(C)=C2[C@H]([C@@H]1OC(=O)CCCCCCC)[C@@](C)(OC(C)=O)C[C@H](OC(=O)CCc1ccc(NC(=O)OC(C)(C)C)cc1)[C@@]1(O)[C@H]2OC(=O)[C@@]1(C)O [APT-boc]; 21.2
11. C/C=C(/C)C(=O)O[C@H]1C(C)=C2[C@H]([C@@H]1OC(=O)CCCCCCC)[C@@](C)(OC(C)=O)C[C@H](OC(=O)CCCC(=O)Nc1ccc(C)c(N)c1)[C@@]1(O)[C@H]2OC(=O)[C@@]1(C)O [GDT]; 316

====

# target entity: PSA (prostate specific antigen) (Homo sapiens)
# Construct: PSA was purified from human seminal plasma; from tissue; host or cells: human seminal plasma
# Sequence (P07288 25-261): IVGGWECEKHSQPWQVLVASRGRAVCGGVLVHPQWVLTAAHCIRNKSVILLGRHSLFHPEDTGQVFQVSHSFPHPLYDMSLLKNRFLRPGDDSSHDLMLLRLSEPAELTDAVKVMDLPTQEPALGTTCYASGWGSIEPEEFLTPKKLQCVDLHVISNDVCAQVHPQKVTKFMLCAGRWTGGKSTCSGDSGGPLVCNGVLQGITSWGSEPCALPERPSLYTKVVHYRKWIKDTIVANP
# test method notes: Cleavage of AMC-labelled peptide substrates by purified PSA (fluorescence of released AMC; Lineweaver-Burke kinetics)
# Assay type: biochemical
# reported conditions: 0.2 mM substrate, PSA assay buffer pH 7.8, room temperature
Starred links: 1 amine or outer side, 2 acyl side, 3 side chain; linkers in the order of their positions; H or OH if unused. Residues, ends and D or L forms follow the SMILES beside them. *: point of attachment. AMC = Cc1cc(=O)oc2cc(N*)ccc12; Morpholide = C1CN(*)CCO1; CO = O=C([*:1])[*:2]
assay metric: Picomoles of substrate cleaved/minute/200 pmoles of indicated protease: PSA

1. CC[C@H](C)[C@H](NC(=O)[C@H](CCCCN)NC(=O)[C@H](CC(N)=O)NC(=O)[C@H](CCC(N)=O)NC(=O)N1CCOCC1)C(=O)N[C@@H](CO)C(=O)N[C@@H](Cc1ccc(O)cc1)C(=O)N[C@@H](CCC(N)=O)C(=O)Nc1ccc2c(C)cc(=O)oc2c1 [QNKISYQ, Gln-Asn-Lys-Ile-Ser-Tyr-Gln] ({Morpholide-CO}-QNKISYQ-{AMC}); 16.8 picomoles/minute/200 pmoles pr
2. CC[C@H](C)[C@H](NC(=O)[C@H](CCCCN)NC(=O)[C@H](CC(N)=O)NC(=O)[C@H](CCC(=O)O)NC(=O)N1CCOCC1)C(=O)N[C@@H](CO)C(=O)N[C@@H](Cc1ccc(O)cc1)C(=O)N[C@@H](CCC(N)=O)C(=O)Nc1ccc2c(C)cc(=O)oc2c1 [ENKISYQ, Glu-Asn-Lys-Ile-Ser-Tyr-Gln] ({Morpholide-CO}-ENKISYQ-{AMC}); 14.4 picomoles/minute/200 pmoles pr
3. Cc1cc(=O)oc2cc(NC(=O)[C@H](Cc3c[nH]cn3)NC(=O)[C@H](CCC(N)=O)NC(=O)[C@H](CCCCN)NC(=O)[C@H](CO)NC(=O)[C@H](CCCCN)NC(=O)[C@@H](NC(=O)[C@H](C)NC(=O)N3CCOCC3)[C@@H](C)O)ccc12 [ATKSKQH, Ala-Thr-Lys-Ser-Lys-Gln-His] ({Morpholide-CO}-ATKSKQH-{AMC}); 16.0 picomoles/minute/200 pmoles pr
4. Cc1cc(=O)oc2cc(NC(=O)[C@H](CCC(N)=O)NC(=O)[C@H](CC(C)C)NC(=O)[C@H](CCCCN)NC(=O)[C@H](CO)NC(=O)[C@H](CO)NC(=O)[C@H](Cc3c[nH]cn3)NC(=O)[C@H](CCC(=O)O)NC(=O)N3CCOCC3)ccc12 [EHSSKLQ, Glu-His-Ser-Ser-Lys-Leu-Gln] ({Morpholide-CO}-EHSSKLQ-{AMC}); 31.6 picomoles/minute/200 pmoles pr

====

Listing of recorded picomles AMC released/minute: Mouse by entry.
# test method notes: Stability of PSA substrates in serum (AMC release)
# Assay type: in vitro ADME
# reported conditions: 0.2 mM substrate
# Method: PSA was purified from human seminal plasma as described in Christensson, et al. Eur. J. Biochem. 194:755-765, (1990). […] Cleavage was studied by measuring fluorescence change secondary to AMC release. Fluorescence detection was carried out with a Fluoroskan II 96 well fluorometric plate reader (ICN Biomedicals, Costa Mesa, Calif.), with excitation wavelength 355 nm and emission wavelength 460 nm. Data were collected and analyzed using Deltasoft III software (Biometallics, Princeton, N.J.). […]
Starred links: 1 amine or outer side, 2 acyl side, 3 side chain; linkers in the order of their positions; H or OH if unused. Residues, ends and D or L forms follow the SMILES beside them. *: point of attachment. AMC = Cc1cc(=O)oc2cc(N*)ccc12; Morpholide = C1CN(*)CCO1; CO = O=C([*:1])[*:2]
assay metric: picomles AMC released/minute: Mouse (picomoles/minute)

1. Cc1cc(=O)oc2cc(NC(=O)[C@H](CCC(N)=O)NC(=O)[C@H](CC(C)C)NC(=O)[C@H](CCCCN)NC(=O)[C@H](CO)NC(=O)[C@H](CO)NC(=O)[C@H](Cc3c[nH]cn3)NC(=O)[C@H](CCC(=O)O)NC(=O)N3CCOCC3)ccc12 [EHSSKLQ, Glu-His-Ser-Ser-Lys-Leu-Gln] ({Morpholide-CO}-EHSSKLQ-{AMC}); 2.17
2. CC[C@H](C)[C@H](NC(=O)[C@H](CCCCN)NC(=O)[C@H](CC(N)=O)NC(=O)[C@H](CCC(N)=O)NC(=O)N1CCOCC1)C(=O)N[C@@H](CO)C(=O)N[C@@H](Cc1ccc(O)cc1)C(=O)N[C@@H](CCC(N)=O)C(=O)Nc1ccc2c(C)cc(=O)oc2c1 [QNKISYQ, Gln-Asn-Lys-Ile-Ser-Tyr-Gln] ({Morpholide-CO}-QNKISYQ-{AMC}); 1.67
3. Cc1cc(=O)oc2cc(NC(=O)[C@H](Cc3c[nH]cn3)NC(=O)[C@H](CCC(N)=O)NC(=O)[C@H](CCCCN)NC(=O)[C@H](CO)NC(=O)[C@H](CCCCN)NC(=O)[C@@H](NC(=O)[C@H](C)NC(=O)N3CCOCC3)[C@@H](C)O)ccc12 [ATKSKQH, Ala-Thr-Lys-Ser-Lys-Gln-His] ({Morpholide-CO}-ATKSKQH-{AMC}); 0.60
